Molecular target: T1, Recombinant purified human PD-1 protein, residues Leu25-Thr168, with a C-terminal 6-His tag (Homo sapiens, UniProt Q15116)
T1 construct: programmed cell death protein 1 (PD-1), human, residues Leu25-Thr168; also called programmed cell death protein 1; PD-1-His monomer; source: bought: R&D Systems (catalog# 8986-PD, lot# DDJM0417041)
T1 sequence (Q15116 25-168): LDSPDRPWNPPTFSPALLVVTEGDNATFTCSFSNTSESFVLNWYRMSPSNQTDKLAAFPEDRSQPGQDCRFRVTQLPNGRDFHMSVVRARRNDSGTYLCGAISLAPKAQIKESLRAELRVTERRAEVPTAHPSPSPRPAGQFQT
Experiment: SPR; Biacore 8K, C1 chip (flat); mAb captured on amine-coupled goat anti-human IgG Fc, PD-1-His monomer as analyte (100 nM top, 3-fold dilutions), 1200 s dissociation; 25 C, HBS-EP+ pH 7.4; 1:1 Langmuir fit, apparent constants; 8 mAbs measured in two independent experiments
Conditions: both partners purified
recorded metric: kon (M⁻¹ s⁻¹)
Give the value in M⁻¹ s⁻¹ but do not write M⁻¹ s⁻¹ after it.

Tell me measured kon for mAb03 (antibody, V domains shown, IgG4; also called analog of tislelizumab; tisle; source: HEK293 suspension cells, cotransfected, purified (Protein A)) VH: QVQLQESGPGLVKPSETLSLTCTVSGFSLTSYGVHWIRQPPGKGLEWIGVIYADGSTNYNPSLKSRVTISKDTSKNQVSLKLSSVTAADTAVYYCARAYGNYWYIDVWGQGTTVTVSS VL: DIVMTQSPDSLAVSLGERATINCKSSESVSNDVAWYQQKPGQPPKLLINYAFHRFTGVPDRFSGSGYGTDFTLTISSLQAEDVAVYYCHQAYSSPYTFGQGTKLEIK please.
636000
